Where these numbers come from: ChEMBL document CHEMBL1201862

system: MCF7; test: NCI tumour cell line growth inhibition, 48 h
Active and inactive are the calls of the source. Cut-off read from the data, not from the text of the source: active = GI50 up to about 1.1 µM and inactive = higher.
Classes to choose from: true (1) (active), false (0) (inactive)

Consider the worked cases shown below.
>>> print(df.to_string())
                                   compound  study_system  class_label
0  O=C1N/C(=N/N=C/C(O)C(O)C(O)C(O)CO)N/C1=C\c1c[nH]c2ccccc12 (stereo not drawn)          MCF7    false (0)
1  CCc1nc(N)nc(N)c1-c1ccc2c(c1)nnn2CCc1ccccc1          MCF7    false (0)
2  COC(=O)CCc1cc(OC)c2c(c1)[C@H](C(=O)OC)[C@@H](c1ccc(O)c(OC)c1)O2          MCF7    false (0)
3             Cc1nc(N)c(N2CCN(CN)CC2)c(O)n1          MCF7    false (0)
4    CCOc1ncn(-c2ccc(NC(=S)Nc3cnccn3)cc2)n1          MCF7    false (0)

Query string: What outcome does the record of this test show for O=C1N[C@H]2C(=O)c3c(Br)sc(Br)c3[C@H]2O1 ?
Result string: false (0)

Query string: What outcome does the record of this test show for CN(C)CCNC(=O)c1cccc2c(NC(CCC(N)=O)C(=O)O)c3ccccc3nc12 (stereo not drawn) ?
Result string: false (0)

Query string: What outcome does the record of this test show for O=C(O)CNC(=O)C(CSC(=O)OCC1c2ccccc2-c2ccccc21)NC(=O)CCC(NC(=O)OCC1c2ccccc2-c2ccccc21)C(=O)O (stereo not drawn) ?
Result string: false (0)

Query string: What outcome does the record of this test show for CC(C)N1CCCOC(c2ccc([N+](=O)[O-])cc2)O1 (stereo not drawn) ?
Result string: false (0)

Query string: What outcome does the record of this test show for CCOC(=O)CC(=O)Nc1cccc2sc3ncccc3c(=O)c12 ?
Result string: true (1)
